system-under-test: ΔF508 CFTR (Homo sapiens, UniProt P13569, DEL508-508)
Sequence (P13569 with tags, fused parts or gaps DEL508-508): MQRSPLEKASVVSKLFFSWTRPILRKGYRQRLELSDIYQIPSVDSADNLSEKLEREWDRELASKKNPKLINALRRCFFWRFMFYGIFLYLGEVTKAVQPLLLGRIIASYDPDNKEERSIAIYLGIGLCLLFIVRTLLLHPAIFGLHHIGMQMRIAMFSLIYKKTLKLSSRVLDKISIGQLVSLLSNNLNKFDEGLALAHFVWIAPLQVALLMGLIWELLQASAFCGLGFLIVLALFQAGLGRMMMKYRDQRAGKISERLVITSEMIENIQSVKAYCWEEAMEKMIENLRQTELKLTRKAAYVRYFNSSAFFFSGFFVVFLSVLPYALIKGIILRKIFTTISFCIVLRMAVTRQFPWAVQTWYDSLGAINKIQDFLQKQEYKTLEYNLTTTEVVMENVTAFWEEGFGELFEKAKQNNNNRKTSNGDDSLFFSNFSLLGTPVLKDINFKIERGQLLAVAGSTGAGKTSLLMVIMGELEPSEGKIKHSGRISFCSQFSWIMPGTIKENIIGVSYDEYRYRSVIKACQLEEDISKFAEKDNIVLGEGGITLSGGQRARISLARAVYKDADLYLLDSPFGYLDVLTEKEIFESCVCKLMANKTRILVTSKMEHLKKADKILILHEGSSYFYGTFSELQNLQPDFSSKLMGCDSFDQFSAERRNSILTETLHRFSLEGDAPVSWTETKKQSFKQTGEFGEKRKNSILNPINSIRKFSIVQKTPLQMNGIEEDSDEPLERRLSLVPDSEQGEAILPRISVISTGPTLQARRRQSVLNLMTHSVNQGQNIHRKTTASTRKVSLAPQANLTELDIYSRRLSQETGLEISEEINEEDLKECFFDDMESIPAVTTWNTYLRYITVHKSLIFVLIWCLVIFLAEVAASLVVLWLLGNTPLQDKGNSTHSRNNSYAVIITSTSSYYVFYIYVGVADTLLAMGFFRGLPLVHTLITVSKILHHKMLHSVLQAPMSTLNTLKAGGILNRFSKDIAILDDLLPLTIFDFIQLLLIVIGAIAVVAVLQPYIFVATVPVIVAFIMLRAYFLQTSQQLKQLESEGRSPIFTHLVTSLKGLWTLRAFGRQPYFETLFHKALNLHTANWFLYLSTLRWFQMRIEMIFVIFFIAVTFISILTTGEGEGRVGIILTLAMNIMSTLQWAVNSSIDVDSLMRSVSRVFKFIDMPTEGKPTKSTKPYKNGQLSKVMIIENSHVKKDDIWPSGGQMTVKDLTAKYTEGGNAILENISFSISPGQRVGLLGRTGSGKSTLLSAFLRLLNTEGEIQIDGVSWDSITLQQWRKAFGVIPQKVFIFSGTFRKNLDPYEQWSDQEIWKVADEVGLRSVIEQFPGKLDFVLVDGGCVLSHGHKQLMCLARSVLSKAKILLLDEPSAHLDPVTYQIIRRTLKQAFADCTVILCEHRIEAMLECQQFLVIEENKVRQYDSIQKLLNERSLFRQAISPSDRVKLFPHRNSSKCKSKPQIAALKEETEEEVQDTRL
protocol-description: Corrector activity, YFP halide (iodide) quenching assay in FRT cells expressing ΔF508 CFTR
Format: cell-based
Set-up: expressed in transfected cells; host or cells: Fischer rat thyroid (FRT) cells
condition-set: FRT cells ΔF508 CFTR/YFP, 24 hours with compound at 37° C., forskolin and genistein; read-out: Corrector EC50
Attribute: EC50

compound | EC50
Nc1ncnc2c1c(-c1ccc(Cl)cc1)nn2C(=O)Oc1ccccc1 [compound 187] | 5 to 10 µM
CC(C)(C)OC(=O)N1CCC(n2nc(Oc3ccccc3)c3c(N)ncnc32)CC1 [compound 362] | > 15 µM
CC(C)(C)n1cc(-c2ccc(Cl)cc2)c2c(NC(=O)N3CCCC3)ncnc21 [compound 399] | > 15 µM
CC(C)(C)n1nc(Cc2cccc3ccccc23)c2c(N)ncnc21 [compound 5] | > 15 µM
CCn1cc(-c2ccc(Cl)cc2)c2c(NC(=O)C(C)C)ncnc21 [compound 336] | < 2 µM
CC(C)(C)OC(=O)N1CC(n2nc(-c3ccc(Cl)cc3)c3c(N)ncnc32)C1 [Compound No. 267] | > 15 µM
CC(C)(C)n1nc(Oc2cccc(OC(F)(F)F)c2)c2c(N)ncnc21 [compound 194] | > 15 µM
CCn1nc(Sc2cccc(C(F)(F)F)c2)c2c(N)ncnc21 [compound 323] | > 15 µM
CC(C)(C)Cn1cc(-c2ccc(Cl)cc2)c2c(N)ncnc21 [compound 316] | 5 to 10 µM
